assay: in vitro; settings: human, microsomes
property_name: microsomal CLint at 3 µM (µL/min/mg)
Expressed in µL/min/mg, but write only the number.

Prompt: Query (molecule): C=CC(=O)Nc1cc2c(cc1Cl)[nH]c(=O)n2C1CCN(Cc2ccc(-c3nc4cc[nH]c(=O)c4cc3-c3ccccc3)cc2)CC1 [24a] ; field requested: microsomal CLint at 3 µM
Completion: 5

====

molecular target: full-length Akt (Akt^wt) (Homo sapiens); experiment: Kinetic characterization by time-dependent IC50 measurements; conditions: from time-dependent IC50
Sequence (P31749 whole entry): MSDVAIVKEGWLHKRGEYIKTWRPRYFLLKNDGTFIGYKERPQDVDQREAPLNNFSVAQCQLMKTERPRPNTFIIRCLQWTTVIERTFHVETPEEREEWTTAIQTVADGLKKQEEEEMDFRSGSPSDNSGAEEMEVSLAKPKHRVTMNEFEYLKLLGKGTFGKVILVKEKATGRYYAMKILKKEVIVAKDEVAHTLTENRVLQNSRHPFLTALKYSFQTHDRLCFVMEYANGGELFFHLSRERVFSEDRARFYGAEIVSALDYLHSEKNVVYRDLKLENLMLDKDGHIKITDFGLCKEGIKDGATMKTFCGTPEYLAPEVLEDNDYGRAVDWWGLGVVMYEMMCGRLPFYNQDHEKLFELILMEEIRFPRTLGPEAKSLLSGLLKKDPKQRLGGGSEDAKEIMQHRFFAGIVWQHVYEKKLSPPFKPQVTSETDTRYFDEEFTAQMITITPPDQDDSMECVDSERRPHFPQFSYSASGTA
property_name: log10 Ki (log10 of the value in nM)
Please note: log10 values; quantity Ki; unit nM.

Completed entries (count: 6):
                                   compound                        target_under_test  property_name  value_observed
0  C=CC(=O)Nc1ccc(C(=O)NC2CCN(Cc3ccc(-c4nc5cc[nH]c(=O)c5cc4-c4ccccc4)cc3)CC2)c(F)c1 [30d]  full-length Akt (Akt^wt) (Homo sapiens)       log10 Ki            1.99
1  C=CC(=O)Nc1cccc(CNC2CCN(Cc3ccc(-c4nc5cc[nH]c(=O)c5cc4-c4ccccc4)cc3)CC2)c1 [compound 32]  full-length Akt (Akt^wt) (Homo sapiens)       log10 Ki            2.51
2  C=CC(=O)Nc1ccc2c(c1)n(C1CCN(Cc3ccc(-c4nc5cc[nH]c(=O)c5cc4-c4ccccc4)cc3)CC1)c(=O)n2C [24b]  full-length Akt (Akt^wt) (Homo sapiens)       log10 Ki            1.03
3  C=CC(=O)Nc1ccc(C(=O)NC2CCN(Cc3ccc(-c4nc5cc[nH]c(=O)c5cc4-c4ccccc4)cc3)CC2)s1 [30f]  full-length Akt (Akt^wt) (Homo sapiens)       log10 Ki            1.59
4  C=CC(=O)Nc1ccc(C(=O)NC2CCN(Cc3ccc(-c4nc5cc[nH]c(=O)c5cc4-c4ccccc4)cc3)CC2)cc1 [30c]  full-length Akt (Akt^wt) (Homo sapiens)       log10 Ki            2.56
5  C=CC(=O)Nc1cc(Br)cc(C(=O)NC2CCN(Cc3ccc(-c4nc5cc[nH]c(=O)c5cc4-c4ccccc4)cc3)CC2)c1 [30e]  full-length Akt (Akt^wt) (Homo sapiens)       log10 Ki            0.88

Prompt: I have this compound here, CN(C)C/C=C/C(=O)Nc1ccc2[nH]c(=O)n(C3CCN(Cc4ccc(-c5nc6cc[nH]c(=O)c6cc5-c5ccccc5)cc4)CC3)c2c1 [24c] , and I need its recorded log10 Ki.
Completion: 1.52

Prompt: Would you mind doing C=CC(=O)Nc1ccccc1C(=O)NC1CCN(Cc2ccc(-c3nc4cc[nH]c(=O)c4cc3-c3ccccc3)cc2)CC1 [30a] as well?
Completion: 1.43

Numbers sourced from paper PMC6430017.
